- System tested: Preformed immune complex of peroxidase and rabbit anti-peroxidase IgG (PAP complex) (horseradish) (UniProt P00433)
- Sequence (P00433 31-338, one chain of several): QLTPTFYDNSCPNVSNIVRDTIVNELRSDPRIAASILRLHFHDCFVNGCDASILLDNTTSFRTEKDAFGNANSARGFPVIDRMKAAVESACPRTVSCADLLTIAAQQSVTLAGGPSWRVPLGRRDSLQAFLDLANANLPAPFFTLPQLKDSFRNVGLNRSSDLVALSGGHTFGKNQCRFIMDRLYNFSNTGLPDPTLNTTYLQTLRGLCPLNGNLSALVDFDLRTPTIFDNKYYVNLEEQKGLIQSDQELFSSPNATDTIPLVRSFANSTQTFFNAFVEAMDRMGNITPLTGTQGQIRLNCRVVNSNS
- Assay procedure: competition reverse ELISA: PAP pre-incubated with peptide, residual PAP binding to C1q-coated plate
No end group written: not given here.
Reported endpoint: OD 405 nm

Examples from the recorded data:
>>> value_measured("APPCARHLGELVWCT (not fully specified; cysteine pairing not given here) [Peptide … (SEQ ID NO:14)]")
"0.567 OD"
>>> value_measured("APPCAFHLGELVWCT (not fully specified; cysteine pairing not given here) [Peptide … (SEQ ID NO:15)]")
"0.983 OD"
>>> value_measured("DCAFHLGELVWCT [Peptide … (SEQ ID NO:3)]")
"0.859 OD"

Q: Sample APPCAWHLGELVWCT (not fully specified; cysteine pairing not given here) [Peptide … (SEQ ID NO:13)] — what was its OD 405 nm?
Result: 1.15 OD

Q: Another binder: APPDCAWHLGELVWCT [Peptide … (SEQ ID NO:16)]
Result: 0.389 OD
